Property: MIC; scope: individual compounds
# Test system: Streptococcus pneumoniae
# Assay info: Resazurin microtiter MIC assay, activity against Streptococcus pneumoniae
# Assay type: cell-based
# Settings: 60 uM
Property measured: MIC (µM)

INSERT INTO measurements (compound, property_measured, recorded_measurement) VALUES
  ('C#CCN(C(=O)c1ccccc1C(F)(F)F)C(C(=O)NCCCC)C1CCCCC1 (centres unmarked)', 'MIC', 50),
  ('CCCCNC(=O)C(C1CCCCC1)N(C(=O)c1ccccc1C)c1ccccc1 (centres unmarked)', 'MIC', 50),
  ('O=C(NC1CCCCC1)C(C1CCCCC1)N(C(=O)c1ccccc1C(F)(F)F)C1CCCCC1 (centres unmarked)', 'MIC', 5),
  ('CCCCNC(=O)C(C1CCCCC1)N(C(=O)c1ccccc1SC)c1ccccc1 (centres unmarked)', 'MIC', 50),
  ('CCCCNC(=O)C(C1CCCCC1)N(C(=O)c1ccccc1OC(C)=O)C1CCCCC1 (centres unmarked)', 'MIC', 5);
